Hey, just so you know, these numbers are from patent US20170088600A1.

- targetOfAssay: T1, TRAIL (TNFSF10) ectodomain (UniProt P50591 39-281, limits assumed)
- T1 construct: extracellular domain; also called endogenous TRAIL; TRAIL ectodomain
- T1 sequence (P50591 39-281 limits assumed): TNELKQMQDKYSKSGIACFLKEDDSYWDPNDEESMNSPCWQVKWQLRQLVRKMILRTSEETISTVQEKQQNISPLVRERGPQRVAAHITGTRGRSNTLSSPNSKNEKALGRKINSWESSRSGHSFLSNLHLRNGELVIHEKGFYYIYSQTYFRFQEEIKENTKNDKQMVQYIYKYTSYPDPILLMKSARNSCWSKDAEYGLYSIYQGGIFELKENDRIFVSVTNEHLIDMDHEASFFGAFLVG
- methodDescription: SPR, mutant TRAIL-R2-Fc captured, TRAIL as analyte
pKd: −log10 of the molar value.
Label scheme for pKd: lower than 8 is false (0), 8 and above is true (1).

binder | className
TRAIL-R2-Fc V167A (Fc fusion, human, not shown: a dimerising Fc or GST, range 58-184) QQDLAPQQRAAPQQKRSSPSEGLCPPGHHISEDGRDCISCKYGQDYSTHWNDLLFCLRCTRCDSGEVELSPCTTTRNTVCQCEEGTFREEDSPEMCRKCRTGCPRGMVKAGDCTPWSDIECVHKESGLVPRGS | true (1)
TRAIL-R2-Fc D148A (Fc fusion, human, not shown: a dimerising Fc or GST, range 58-184) QQDLAPQQRAAPQQKRSSPSEGLCPPGHHISEDGRDCISCKYGQDYSTHWNDLLFCLRCTRCDSGEVELSPCTTTRNTVCQCEEGTFREEASPEMCRKCRTGCPRGMVKVGDCTPWSDIECVHKESGLVPRGS | true (1)
TRAIL-R2-Fc P150A (Fc fusion, human, not shown: a dimerising Fc or GST, range 58-184) QQDLAPQQRAAPQQKRSSPSEGLCPPGHHISEDGRDCISCKYGQDYSTHWNDLLFCLRCTRCDSGEVELSPCTTTRNTVCQCEEGTFREEDSAEMCRKCRTGCPRGMVKVGDCTPWSDIECVHKESGLVPRGS | true (1)
TRAIL-R2-Fc F112A (Fc fusion, human, not shown: a dimerising Fc or GST, range 58-184) QQDLAPQQRAAPQQKRSSPSEGLCPPGHHISEDGRDCISCKYGQDYSTHWNDLLACLRCTRCDSGEVELSPCTTTRNTVCQCEEGTFREEDSPEMCRKCRTGCPRGMVKVGDCTPWSDIECVHKESGLVPRGS | true (1)
TRAIL-R2-Fc K155A (Fc fusion, human, not shown: a dimerising Fc or GST, range 58-184) QQDLAPQQRAAPQQKRSSPSEGLCPPGHHISEDGRDCISCKYGQDYSTHWNDLLFCLRCTRCDSGEVELSPCTTTRNTVCQCEEGTFREEDSPEMCRACRTGCPRGMVKVGDCTPWSDIECVHKESGLVPRGS | false (0)
TRAIL-R2-Fc M152A (Fc fusion, human, not shown: a dimerising Fc or GST, range 58-184) QQDLAPQQRAAPQQKRSSPSEGLCPPGHHISEDGRDCISCKYGQDYSTHWNDLLFCLRCTRCDSGEVELSPCTTTRNTVCQCEEGTFREEDSPEACRKCRTGCPRGMVKVGDCTPWSDIECVHKESGLVPRGS | false (0)
